test system: U-2 OS; experiment: cell painting activity score (Mahalanobis distance from DMSO wells); higher = stronger morphological phenotype; conditions: 5 µM; 24 h
# cutoff 10 applies to cell painting activity score; >= gives YES, < gives NO

{"Molecule": "O=C(Nc1nc(-c2ccccc2)ns1)c1cccs1", "Group Label": "NO"}
{"Molecule": "Cc1cc(-c2ccccc2)cc(C(=O)NNS(=O)(=O)c2ccccc2)c1F", "Group Label": "NO"}
{"Molecule": "Cl.Nc1ccc(O)c2ccccc12", "Group Label": "YES"}
{"Molecule": "CS(=O)(=O)OCCCCOS(C)(=O)=O", "Group Label": "NO"}
{"Molecule": "CN(C)C/C=C/C(=O)Nc1ccc(C(=O)Nc2cccc(Nc3ncc(Cl)c(-c4c[nH]c5ccccc45)n3)c2)cc1", "Group Label": "YES"}
{"Molecule": "O=S1(=O)CC(N2CCCC2)c2ccccc21 (centres undefined)", "Group Label": "NO"}
{"Molecule": "CC(Cc1ccc(O)c(O)c1)C(C)Cc1ccc(O)c(O)c1 (centres undefined)", "Group Label": "YES"}
{"Molecule": "O=[N+]([O-])c1cc(Br)c2nsnc2c1Sc1ncnc2nc[nH]c12", "Group Label": "YES"}

###

The following molecules are shown together with reported relative cell count values.
tested on: U-2 OS; test: relative cell count vs DMSO (cell painting) (fraction of DMSO control); higher = more cells remaining (less cytotoxic); conditions: 5 µM; 24 h

{"Molecule": "CC(C)([C@](C1=O)(C2=O)C/C=C(C)\\C)[C@@H](C[C@]31C[C@@H](C(C)(OC3=C2C(C4=CC(O)=C(C=C4)O)=O)C)C/C=C(C)\\C)C/C=C(C)\\C", "Study Target": "U-2 OS", "relative cell count": 1.15}
{"Molecule": "CCC(=O)CCCCC[C@@H]1NC(=O)[C@H]2CCCCN2C(=O)[C@H]([C@@H](C)CC)NC(=O)[C@H](Cc2cn(OC)c3ccccc23)NC1=O", "Study Target": "U-2 OS", "relative cell count": 0.59}
{"Molecule": "C=CC(=O)Nc1cc2c(Nc3ccc(F)c(Cl)c3)ncnc2cc1OC", "Study Target": "U-2 OS", "relative cell count": 0.989}
{"Molecule": "C=CCNC1=C2C[C@@H](C)C[C@H](OC)[C@H](O)[C@@H](C)/C=C(\\C)[C@H](OC(N)=O)[C@@H](OC)/C=C\\C=C(/C)C(=O)NC(=CC1=O)C2=O", "Study Target": "U-2 OS", "relative cell count": 0.586}
{"Molecule": "O=C1C=C(Cl)C(=O)c2ccccc21", "Study Target": "U-2 OS", "relative cell count": 0.29}
{"Molecule": "COS(=O)(=O)O.C[n+]1c2ccccc2nc2ccccc21", "Study Target": "U-2 OS", "relative cell count": 0.265}
{"Molecule": "CCc1c2c(nc3ccc(OC(=O)N4CCC(N5CCCCC5)CC4)cc13)-c1cc3c(c(=O)n1C2)COC(=O)[C@]3(O)CC.Cl", "Study Target": "U-2 OS", "relative cell count": 0.614}
{"Molecule": "C[C@H]1CCC/C=C/[C@@H]2C[C@H](O)C[C@H]2[C@H](O)/C=C/C(=O)O1", "Study Target": "U-2 OS", "relative cell count": 0.629}
{"Molecule": "O=C1O[C@H]2[C@@H]3OC(=O)c4cc(O)c(O)c(O)c4-c4c(O)c(O)c5oc(=O)c6c(c(O)c(O)c7oc(=O)c4c5c76)-c4c(cc(O)c(O)c4O)C(=O)OC[C@H]3OC(O)[C@@H]2OC(=O)c2cc(O)c(O)c(O)c2-c2c1cc(O)c(O)c2O (stereo partly drawn)", "Study Target": "U-2 OS", "relative cell count": 1.02}
{"Molecule": "CC(C)(C)c1cc(O)ccc1O", "Study Target": "U-2 OS", "relative cell count": 0.913}
{"Molecule": "Cc1csc(=NC2CCCCC2)n1/N=C/c1ccc(O)c(O)c1O", "Study Target": "U-2 OS", "relative cell count": 1}
{"Molecule": "COc1cc([C@@H]2c3cc4c(cc3[C@@H](O[C@@H]3O[C@@H]5CO[C@@H](C)O[C@H]5[C@H](O)[C@H]3O)[C@H]3COC(=O)[C@H]23)OCO4)cc(OC)c1O", "Study Target": "U-2 OS", "relative cell count": 0.604}
{"Molecule": "COC[C@H]1OC(=O)c2coc3c2[C@@]1(C)C1=C(C3=O)[C@@H]2CCC(=O)[C@@]2(C)C[C@H]1OC(C)=O", "Study Target": "U-2 OS", "relative cell count": 0.873}
{"Molecule": "COc1cc(/C=C/C(=O)CC(=O)/C=C/c2ccc(O)c(OC)c2)ccc1O", "Study Target": "U-2 OS", "relative cell count": 0.892}
{"Molecule": "C[C@]12O[C@H](C[C@]1(O)CO)n1c3ccccc3c3c4c(c5c6ccccc6n2c5c31)CNC4=O", "Study Target": "U-2 OS", "relative cell count": 0.516}
{"Molecule": "C=CC(=O)Nc1ccc(CN2C(=O)N(c3cc(OC)cc(OC)c3)Cc3cnc(Nc4ccc(N5CCN(C)CC5)cc4)nc32)cc1", "Study Target": "U-2 OS", "relative cell count": 0.951}
{"Molecule": "O=C(c1ccc(/C=C/c2n[nH]c3ccccc23)cc1)N1CCNCC1", "Study Target": "U-2 OS", "relative cell count": 0.572}
{"Molecule": "O=S1(=O)CC(SCc2ccccc2)c2ccccc21 (stereo not drawn)", "Study Target": "U-2 OS", "relative cell count": 1.07}
{"Molecule": "C[C@H]1O[C@@H](O[C@H]2CC[C@@]3(C)[C@@H](CC[C@]4(C)[C@@H]3C=C[C@]35OC[C@@]6(CCC(C)(C)C[C@H]63)[C@@H](O)C[C@]54C)[C@]2(C)CO)[C@H](O)[C@@H](O[C@@H]2O[C@H](CO)[C@@H](O)[C@H](O)[C@H]2O)[C@H]1O", "Study Target": "U-2 OS", "relative cell count": 0.3}
{"Molecule": "O=[N+]([O-])c1c(Cl)cc(Cl)c2nsnc12", "Study Target": "U-2 OS", "relative cell count": 0.222}
{"Molecule": "Cc1ccc(S(=O)(=O)/C=C/C#N)cc1", "Study Target": "U-2 OS", "relative cell count": 0.485}
{"Molecule": "COc1cc2ncnc(Nc3ccc(F)c(Cl)c3)c2cc1NC(=O)/C=C/CN1CCCCC1", "Study Target": "U-2 OS", "relative cell count": 0.503}
{"Molecule": "CC1OC2=C(C(=O)C(=O)c3ccccc32)C1(C)C (stereo not drawn)", "Study Target": "U-2 OS", "relative cell count": 0.207}
